- experimentalSystem: BCR-KIT BaF3 cells (Homo sapiens, UniProt P10721)
- Construct: fused on or other part: P11274 (Breakpoint cluster region protein)
- Sequence (P10721 589-937): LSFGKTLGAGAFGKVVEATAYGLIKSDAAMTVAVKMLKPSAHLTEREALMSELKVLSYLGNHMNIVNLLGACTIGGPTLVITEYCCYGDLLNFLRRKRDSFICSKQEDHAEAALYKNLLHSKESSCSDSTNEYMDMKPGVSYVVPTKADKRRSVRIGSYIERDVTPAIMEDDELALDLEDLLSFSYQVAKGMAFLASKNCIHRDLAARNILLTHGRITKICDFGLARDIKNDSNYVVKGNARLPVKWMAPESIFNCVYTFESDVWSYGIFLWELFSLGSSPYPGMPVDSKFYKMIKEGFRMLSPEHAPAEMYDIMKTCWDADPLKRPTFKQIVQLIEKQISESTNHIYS
- assayDetails: BaF3 BCR-KIT cell proliferation assay (ATPlite)
- conditionSet: read-out: Inhibition of Cell Proliferation IC50, BCR/BaF3 Kit
pIC50: −log10 of the molar value.
Record form. Attribute: pIC50. Fill in for each entry.

Known pIC50 results, listed for orientation:
[[record]]
compound = "Cc1ccc(Nc2ccc(C(=O)c3c[nH]c4ncnc(C5CC5)c34)c(F)n2)cn1 [Compound P-4031]"
propertymeasured = "pIC50"
measuredresult = "> 6.00"

[[record]]
compound = "CCOc1ccc(Nc2ccc(Cc3c[nH]c4ncnc(C)c34)c(F)n2)cn1 [Compound P-4006]"
propertymeasured = "pIC50"
measuredresult = "> 7.00"

[[record]]
compound = "Clc1cnc2[nH]cc(Cc3cnc(Nc4ccccc4Cl)nc3)c2c1 [Compound P-3015]"
propertymeasured = "pIC50"
measuredresult = "< 6.00"


In the following, a different compound is considered.
Value lookup for pIC50; key = Cc1cnc2[nH]cc(Cc3ccc(Nc4ccc(C)nc4)nc3F)c2c1 [Compound P-3041] > 6.00
